target.of.assay: PSMA-expressing C4-2 cells (Homo sapiens)
Construct: PSMA-expressing C4-2 cells (ATCC, Cat. No. CRL-3314) were cultured in RPMI-1640; host or cells: C4-2 cells
Sequence (Q04609 whole entry): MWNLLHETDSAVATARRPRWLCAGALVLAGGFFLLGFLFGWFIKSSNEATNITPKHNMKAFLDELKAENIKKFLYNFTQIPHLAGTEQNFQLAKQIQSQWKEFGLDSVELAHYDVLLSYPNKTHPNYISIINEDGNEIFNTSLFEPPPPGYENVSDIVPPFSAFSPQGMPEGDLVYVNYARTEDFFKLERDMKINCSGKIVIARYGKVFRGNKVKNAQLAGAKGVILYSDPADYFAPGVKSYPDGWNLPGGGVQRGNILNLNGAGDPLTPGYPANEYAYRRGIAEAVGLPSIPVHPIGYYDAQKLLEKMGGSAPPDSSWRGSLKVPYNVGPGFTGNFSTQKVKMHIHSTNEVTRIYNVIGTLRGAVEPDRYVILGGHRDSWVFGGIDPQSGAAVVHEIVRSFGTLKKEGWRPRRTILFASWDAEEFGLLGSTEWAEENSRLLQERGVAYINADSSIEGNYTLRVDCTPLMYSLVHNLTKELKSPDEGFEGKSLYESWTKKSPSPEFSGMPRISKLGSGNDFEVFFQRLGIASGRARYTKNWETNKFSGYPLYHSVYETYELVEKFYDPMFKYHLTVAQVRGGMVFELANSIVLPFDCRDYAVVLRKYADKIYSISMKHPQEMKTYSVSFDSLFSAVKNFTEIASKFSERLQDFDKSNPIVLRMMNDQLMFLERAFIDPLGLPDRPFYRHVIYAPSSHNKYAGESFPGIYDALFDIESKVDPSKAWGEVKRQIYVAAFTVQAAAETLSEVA
experiment.summary: FACS binding assay (competition with 50 nM PSM-0183)
experimental.parameters: FACS binding, C4-2 cells, category; read-out: pIC50 [C4-2] CAT (converted)
Numbered stars: 1 amine (or outer) side, 2 acyl side, 3 side chain; on linkers, the order of the positions; unused ones are H or OH. Bridge positions count the residues as written; N and C are the ends. Square brackets hold non-standard residues; d marks the D form. Peptide text beside a SMILES is read from it. * marks the point of attachment. DOTA = O=C(O)CN1CCN(CC(=O)O)CCN(CC(=O)*)CCN(CC(=O)O)CC1; X16 = CNC(=N)N(C)CCC[C@H](N[*:1])C(=O)[*:2]; Phe(4-Cl) = N[C@@H](Cc1ccc(Cl)cc1)C(=O)O; X1 = O=C(CC1CCN([*:1])CC1)[*:2]; Lys(Me) = CNCCCC[C@H](N)C(=O)O; Tle = CC(C)(C)[C@H](N)C(=O)O; Nle = CCCC[C@H](N)C(=O)O; Aib = CC(C)(N)C(=O)O
test.readout: IC50

CNCCCC[C@@H]1NC(=O)[C@@H](NC(=O)[C@H](Cc2ccc(Cl)cc2)NC(=O)C(C)(C)NC(=O)[C@@H](NC(=O)CC2CCN(C(=O)CN3CCN(CC(=O)O)CCN(CC(=O)O)CCN(CC(=O)O)CC3)CC2)[C@@H](C)O)CSSC[C@@H](C(=O)N[C@H](C(=O)N[C@H](C(N)=O)[C@@H](C)O)C(C)(C)C)NC(=O)[C@H](CC(N)=O)NC(=O)C(C)(C)NC(=O)[C@H](CCCN(C)C(=N)NC)NC1=O [PSM-0590] ({DOTA}-[X1]T[Aib][Phe(4-Cl)]C[Lys(Me)][X16][Aib]NC[Tle]T-NH2; disulfide 5-10) = < 200 nM

From here, focus on the item given below.
-- ask What value of IC50 has been recorded for this entry: CCCC[C@H](NC(=O)[C@@H]1CSSC[C@H](NC(=O)[C@H](Cc2ccccc2)NC(=O)[C@H](C)NC(=O)[C@@H](NC(C)=O)[C@@H](C)O)C(=O)N[C@@H](CCCCN)C(=O)N2CCC[C@H]2C(=O)N[C@@H](C)C(=O)N[C@@H](CC(N)=O)C(=O)N1)C(=O)N[C@H](C(=O)N[C@@H](CC(=O)O)C(N)=O)[C@@H](C)O [PSM-0564] (Ac-TAFCKPANC[Nle]TD-NH2; disulfide 4-9)
-- reply > 3160 nM
